Where do the numbers come from? From the NIST ThermoML archive (doi:10.1007/s10765-010-0874-x).

We begin with a simple list: items and their reported speed of sound.
conditions: 298.15 K; 101 kPa; Liquid; Sing-around technique in a fixed-path interferometer
observation-type: speed of sound (m/s)

molecular_string=ClCCCl observation_type="speed of sound" u=m/s experimental_result=1193.6
molecular_string=ClC(Cl)=C(Cl)Cl observation_type="speed of sound" u=m/s experimental_result=1039
molecular_string=CCCCCCO observation_type="speed of sound" u=m/s experimental_result=1303.2
molecular_string=BrCCBr observation_type="speed of sound" u=m/s experimental_result=994.27

###

details: 298.15 K; 101 kPa; Liquid
observation-type: mass density (kg/m3)

molecular_string=CCCCCCO experimental_result=815.281
molecular_string=BrCCBr experimental_result=2169.14
molecular_string=ClCCCl experimental_result=1245.56
molecular_string=ClC(Cl)=C(Cl)Cl experimental_result=1614.43
